procedureDetails: Plasma losmapimod concentrations (PK), Phase 2b RCT
Type: in vivo, human
conditionContext: human, plasma, po; 15 mg orally BID; 4 h post-dose; read-out: Plasma concentrations of losmapimod 4 h post-dose (approximate Cmax)
valueKind: Cmax at 4 h

cpdsmiles=Cc1c(F)cc(C(=O)NC2CC2)cc1-c1ccc(C(=O)NCC(C)(C)C)cn1 valuekind="Cmax at 4 h" result="66.4 to 91.8 ng/mL"
